Values from PubChem BioAssay (NCI)

Experiment: NCI Yeast Anticancer Drug Screen. Data for the cln2 rad14 strain (AID 165);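 further: 0% = growth equal to vehicle treated cultures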
Conditions: S. cerevisiae cln2 rad14 strain, at 50.0 µM, hits give high values
Compounds without any hit were thinned out: in the full panel of roughly 79,000, 15% have a hit. The source made the active and inactive calls. No stated cut-off is given here; in the data, active means growth inhibition above about 70%; inactive means the rest.
Overview of recorded growth inhibition for various compounds

| compound | growth inhibition |
| --- | --- |
| CC(=O)c1ccc(C(=O)c2cccnc2)cc1 | -49.3% (inactive) |
| COc1c([N+](=O)[O-])ccc(C(OC(C)=O)OC(C)=O)c1OC(C)=O | 2.35% (inactive) |
| CC(=O)/C=C(/C=N/O)c1ccccc1 | 7.75% (inactive) |
| C/C(=N/NC(N)=O)C1CCC(C)CC1 (stereo not drawn) | 12.3% (inactive) |
| CCC1(O)CC2CN(CCc3c([nH]c4ccccc34)C(C(=O)OC)(c3cc4c(cc3OC)N(C)C3C(O)(C(N)=O)C(O)C5(CC)C=CCN6CCC43C65)C2)C1 (stereo not drawn) (tested in a mixture with another compound) | 2.7% (inactive) |
| COc1ccc(C2OC3=Nc4ccccc4NC3C2=O)cc1OC (stereo not drawn) | 5.25% (inactive) |
| O=C(Cn1nnc(N2CCCCC2)n1)N/N=C/c1ccccc1O | -10.8% (inactive) |
| COc1cccc(-n2cnc3c(=S)nc[nH]c32)c1 | -41.6% (inactive) |
| CNC(=O)CC(=O)NC | 6.15% (inactive) |
| C[C@H]1CC[C@@]2(OC1)O[C@H]1C[C@H]3[C@@H]4CC[C@@H]5C[C@@H](OC6OC(CO)C(O)C(O)C6OC6OC(CO)C(O)C(O)C6O)CC[C@]5(C)[C@H]4CC[C@]3(C)[C@H]1[C@@H]2C (stereo partly drawn) | 19.3% (inactive) |
| CC(=O)Nc1nc(NC(C)=O)c2nc(CCN(C)c3ccc(C(=O)O)cc3)cnc2n1 | -5.25% (inactive) |
| O=C1CCC(c2ccccc2)(C2CCN(Cc3ccc(F)cc3)CC2)C(=O)N1 (stereo not drawn) | -14.8% (inactive) |
| Cc1noc(C)c1N=Nc1ccc2nonc2c1N | 16.5% (inactive) |
